Test system: HEK293 WT BDD-FVIII-Gluc
assay.notes: secreted FVIII-Gluc luciferase Z-score vs DMSO control; higher = more FVIII-Gluc secretion
assay.conditions: 5 µM
Reported values of secreted FVIII-Gluc luciferase Z-score for individual entries
Format: numeric value only, no unit, no commentary.

input: For the record CCc1cn(C2CC(O)C(CO)O2)c(=O)[nH]c1=O (stereo unspecified) , what value of secreted FVIII-Gluc luciferase Z-score is listed for HEK293 WT BDD-FVIII-Gluc?
output: -0.382

Others:
input: Notebook: pull reported secreted FVIII-Gluc luciferase Z-score for HEK293 WT BDD-FVIII-Gluc, entry `Cc1cc(=O)oc2cc(O[C@@H]3O[C@H](C(=O)O)[C@@H](O)[C@H](O)[C@H]3O)ccc12`
output: 0.123

input: Okay, and `O=C(O)c1cc(=O)c2ccccc2[nH]1` ?
output: 0.496

input: Also `Oc1ccc(/C=C/c2cc(O)cc(O)c2)cc1` , if possible.
output: 0.294

input: Another: `OC[C@H]1O[C@@H](O[C@@H]2[C@@H](CO)O[C@](O)(CO)[C@H]2O)[C@H](O)[C@@H](O)[C@H]1O`
output: 0.26

input: Check `COc1ccc([C@@H]2CC(=O)c3c(O)cc(O)cc3O2)cc1O` too.
output: 0.825

The measurements presented in this section are drawn from the supplement of paper PMC12024529.
